# assay_name: Cytotoxicity against human A253 cells assessed as cell survival after 96 hrs by SRB assay
# Assay type: functional, cell-based
# condition_parameters: A253, 96 h
recorded_metric: pIC50
// pIC50 here means minus log10 of the molar concentration (mol/L)

Here's what some known entries look like.
C[C@H]1[C@H](C)CC[C@]2(C)CC[C@]3(C)C(=CC(=O)[C@@H]4[C@@]5(C)CC[C@H](N)[C@](C)(C(=O)O)[C@@H]5CC[C@]43C)[C@H]12    5.25
COC(=O)[C@@]1(C)/C(=N/O)CC[C@@]2(C)[C@H]1CC[C@]1(C)[C@@H]2C(=O)C=C2[C@@H]3[C@@H](C)[C@H](C)CC[C@]3(C)CC[C@]21C    4.81
CC(=O)O[C@@H]1CC[C@@]2(C)[C@@H](CC[C@]3(C)[C@@H]2C(=O)C=C2[C@@H]4[C@@H](C)[C@H](C)CC[C@]4(C)CC[C@]23C)[C@@]1(C)C(=O)O    4.77
COC(=O)[C@]1(C)[C@@H]2CC[C@]3(C)[C@H](C(=O)C=C4[C@@H]5[C@@H](C)[C@H](C)CC[C@]5(C)CC[C@]43C)[C@@]2(C)CC1(O)C(=O)O (some centres not stated)    4.26
C[C@H]1[C@H](C)CC[C@]2(C)CC[C@]3(C)C(=CC(=O)[C@@H]4[C@@]5(C)CC[C@@H](O)[C@](C)(C(=O)O)[C@@H]5CC[C@]43C)[C@H]12    4.34
COC(=O)[C@@]1(C)C=CC[C@@]2(C)[C@H]1CC[C@]1(C)[C@@H]2C(=O)C=C2[C@@H]3[C@@H](C)[C@H](C)CC[C@]3(C)CC[C@]21C    4.40

Continue with the compound presented below.
Lookup: Entry C[C@H]1[C@H](C)CC[C@]2(C)CC[C@]3(C)C(=CC(=O)[C@@H]4[C@@]5(C)CCC(=O)[C@@H](C)[C@@H]5CC[C@]43C)[C@H]12 needs its pIC50 filled in; supply it.
Found: 4.40

###

# assay_name: Cytotoxicity against human A253 cells assessed as cell survival after 96 hrs by SRB assay
# Format: functional, cell-based
# condition_parameters: A253, 96 h
Items are presented alongside their recorded IC50.
Quick note: give the figure in µM, leave out the unit.

Here's what some known entries look like.
COC(=O)[C@@]1(C)C(=O)C(O)=C[C@]2(C)[C@H]3C(=O)C=C4[C@@H]5[C@@H](C)[C@H](C)CC[C@]5(C)CC[C@@]4(C)[C@]3(C)CC[C@@H]12    42.3
COC(=O)[C@@]1(C)[C@@H](C(=O)O)CC[C@@]2(C)[C@H]1CC[C@]1(C)[C@@H]2C(=O)C=C2[C@@H]3[C@@H](C)[C@H](C)CC[C@]3(C)CC[C@]21C    38.2

Continue with the compound presented below.
Lookup: Entry C[C@H]1[C@H](C)CC[C@]2(C)CC[C@]3(C)C(=CC=C4[C@@]5(C)CC[C@@H](O)[C@](C)(CO)[C@@H]5CC[C@]43C)[C@H]12 needs its IC50 filled in; supply it.
Found: 18.1

###

Items are presented alongside their recorded pIC50.
# Test system: A2780
# assay_name: Cytotoxicity against human A2780 cells assessed as cell survival after 96 hrs by SRB assay
# Assay type: functional, cell-based
# condition_parameters: A2780, 96 h
// pIC50 here means minus log10 of the molar concentration (mol/L)

Here's what some known entries look like.
COC(=O)[C@@]1(C)/C(=N/O)CC[C@@]2(C)[C@H]1CC[C@]1(C)[C@@H]2C(=O)C=C2[C@@H]3[C@@H](C)[C@H](C)CC[C@]3(C)CC[C@]21C    4.74
COC(=O)[C@@]1(C)C(=O)C(O)=C[C@]2(C)[C@H]3C(=O)C=C4[C@@H]5[C@@H](C)[C@H](C)CC[C@]5(C)CC[C@@]4(C)[C@]3(C)CC[C@@H]12    4.39
C[C@H]1[C@H](C)CC[C@]2(C)CC[C@]3(C)C(=CC=C4[C@@]5(C)CC[C@@H](O)[C@](C)(CO)[C@@H]5CC[C@]43C)[C@H]12    4.36
C[C@H]1[C@H](C)CC[C@]2(C)CC[C@]3(C)C(=CC(=O)[C@@H]4[C@@]5(C)CC[C@H](N)[C@](C)(C(=O)O)[C@@H]5CC[C@]43C)[C@H]12    5.14
C[C@H]1[C@H](C)CC[C@]2(C)CC[C@]3(C)C(=CC(=O)[C@@H]4[C@@]5(C)CCC(=O)[C@@H](C)[C@@H]5CC[C@]43C)[C@H]12    4.63

Lookup: Determine reported pIC50 for CC(=O)O[C@@H]1CC[C@@]2(C)[C@@H](CC[C@]3(C)[C@@H]2C(=O)C=C2[C@@H]4[C@@H](C)[C@H](C)CC[C@]4(C)CC[C@]23C)[C@@]1(C)C(=O)O ; test system: A2780.
Found: 4.85

Lookup: Determine reported pIC50 for COC(=O)[C@]1(C)[C@@H]2CC[C@]3(C)[C@H](C(=O)C=C4[C@@H]5[C@@H](C)[C@H](C)CC[C@]5(C)CC[C@]43C)[C@@]2(C)CC1(O)C(=O)O (stereo not given in full) ; test system: A2780.
Found: 4.27
